Target: Mitogen-activated protein kinase 1 (Homo sapiens)
Sequence (P28482 whole entry): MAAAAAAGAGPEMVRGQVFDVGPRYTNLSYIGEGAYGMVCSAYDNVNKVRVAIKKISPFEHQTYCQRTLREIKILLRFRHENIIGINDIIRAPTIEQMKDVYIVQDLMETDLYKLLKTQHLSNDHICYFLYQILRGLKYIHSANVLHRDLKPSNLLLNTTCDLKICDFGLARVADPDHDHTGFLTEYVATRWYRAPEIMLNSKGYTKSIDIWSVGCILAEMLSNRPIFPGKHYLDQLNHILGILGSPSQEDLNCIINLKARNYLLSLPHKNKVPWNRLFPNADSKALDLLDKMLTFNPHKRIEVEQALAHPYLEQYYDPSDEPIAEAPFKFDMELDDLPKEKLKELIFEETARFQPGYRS
Assay: Inhibition of ERK2 (unknown origin) using 5FAM-IPTSPITTTYFFFKKK as substrate after 1 hr by LC3K assay
pIC50: −log10 of the molar value.

>  <Line notation>
Cc1n[nH]c(C)c1-c1cnc2[nH]ccc2n1

>  <Tested system>
Mitogen-activated protein kinase 1 (Homo sapiens)

>  <Inequality operator>
=

>  <pIC50>
4.85

$$$$
>  <Line notation>
COc1ccc(-c2c[nH]c3ncc(-c4ccncc4)nc23)cn1

>  <Tested system>
Mitogen-activated protein kinase 1 (Homo sapiens)

>  <Inequality operator>
=

>  <pIC50>
6.60

$$$$
>  <Line notation>
c1cc(-c2cnc3[nH]cc(-c4cnn(CCN5CCOCC5)c4)c3n2)ccn1

>  <Tested system>
Mitogen-activated protein kinase 1 (Homo sapiens)

>  <Inequality operator>
=

>  <pIC50>
6.38

$$$$
>  <Line notation>
Oc1ccc(-c2cnc3[nH]ccc3n2)cc1

>  <Tested system>
Mitogen-activated protein kinase 1 (Homo sapiens)

>  <Inequality operator>
=

>  <pIC50>
4.91

$$$$
>  <Line notation>
c1ncc(-c2c[nH]c3ncc(-c4cn[nH]c4)nc23)cn1

>  <Tested system>
Mitogen-activated protein kinase 1 (Homo sapiens)

>  <Inequality operator>
=

>  <pIC50>
5.98

$$$$
>  <Line notation>
Brc1cnc2[nH]ccc2n1

>  <Tested system>
Mitogen-activated protein kinase 1 (Homo sapiens)

>  <Inequality operator>
<

>  <pIC50>
3.70

$$$$
>  <Line notation>
COc1ccc(-c2cnc3[nH]ccc3n2)cc1

>  <Tested system>
Mitogen-activated protein kinase 1 (Homo sapiens)

>  <Inequality operator>
=

>  <pIC50>
4.05

$$$$
>  <Line notation>
Oc1cccc(-c2cnc3[nH]ccc3n2)c1

>  <Tested system>
Mitogen-activated protein kinase 1 (Homo sapiens)

>  <Inequality operator>
<

>  <pIC50>
3.70

$$$$
>  <Line notation>
c1cc(-c2cnc3[nH]ccc3n2)ccn1

>  <Tested system>
Mitogen-activated protein kinase 1 (Homo sapiens)

>  <Inequality operator>
=

>  <pIC50>
4.93

$$$$
>  <Line notation>
c1ccc(-c2cnc3[nH]ccc3n2)cc1

>  <Tested system>
Mitogen-activated protein kinase 1 (Homo sapiens)

>  <Inequality operator>
=

>  <pIC50>
4.30

$$$$
>  <Line notation>
Nc1ccc(-c2c[nH]c3ncc(-c4ccncc4)nc23)cn1

>  <Tested system>
Mitogen-activated protein kinase 1 (Homo sapiens)

>  <Inequality operator>
=

>  <pIC50>
6.33

$$$$
>  <Line notation>
Cn1cc(-c2cnc3[nH]ccc3n2)cn1

>  <Tested system>
Mitogen-activated protein kinase 1 (Homo sapiens)

>  <Inequality operator>
=

>  <pIC50>
4.65

$$$$
>  <Line notation>
Fc1ccc(-c2cnc3[nH]ccc3n2)cc1

>  <Tested system>
Mitogen-activated protein kinase 1 (Homo sapiens)

>  <Inequality operator>
=

>  <pIC50>
4.53

$$$$
>  <Line notation>
OCCCn1cc(-c2c[nH]c3ncc(-c4ccncc4)nc23)cn1

>  <Tested system>
Mitogen-activated protein kinase 1 (Homo sapiens)

>  <Inequality operator>
=

>  <pIC50>
6.21

$$$$
>  <Line notation>
NC(=O)c1ccc(-c2cnc3[nH]ccc3n2)cc1

>  <Tested system>
Mitogen-activated protein kinase 1 (Homo sapiens)

>  <Inequality operator>
=

>  <pIC50>
4.36

$$$$
